test: P. aeruginosa biofilm formation inhibitors, primary screen, strain PAO1, LB-PBS medium, absorbance 600 nm (AID 1176); further: test concentration not given here; settings: P. aeruginosa PAO1 growth/biofilm, A600, 12 h; higher = more signal
Calls of active or inactive are those of the source. How the calls were made is not given here.
Recorded measurements of z-score, one per entry

C#CCCCON=C1C[C@@H](O)[C@@H](O)[C@@H]2[C@@H]3C(=O)N(C[C@@H]4CCCO4)C(=O)[C@@H]3CC[C@@H]12    0.14 (inactive)
CCCNC(=O)OC[C@H]1O[C@H](CCON=C2c3cc(OC)ccc3O[C@H](c3cccc(OC)c3)[C@H]2O)C=C[C@@H]1Oc1ccc(OC)cc1    0.724 (inactive)

input: For CCOC(=O)[C@H](Cc1ccccc1)NC(=O)CCC1CC(OC(=O)NCc2cccc3ccccc23)CC2(CCCC(COC(=O)NCCOc3ccccc3)O2)O1 (some centres not stated) , write its z-score.
output: -0.0448 (inactive)

input: For "CC(C)=NO[C@@H](C)c1cn([C@H](CO)Cc2ccccc2)nn1" , write its z-score.
output: 0.0889 (inactive)

input: For "CCN1C(=O)[C@H]2[C@H]3[C@H](O)[C@H](O)CC(=NOCC=C(C)CCC=C(C)C)[C@@H]3CC[C@H]2C1=O" , write its z-score.
output: -0.446 (inactive)

input: For "COCOc1ccc(Br)cc1C(=O)C=Cc1ccc2c(c1)OCO2" , write its z-score.
output: 1.01 (inactive)

input: For "O=C1[C@H]2[C@H]3[C@H](O)[C@H](O)CC(=NOCc4ccccc4)[C@@H]3CC[C@H]2C(=O)N1c1cccc(Oc2ccccc2)c1" , write its z-score.
output: 0.741 (inactive)
